Values from the supplement of paper PMC3334620

Molecular target: Sut1 (UniProt P53032)
Sequence: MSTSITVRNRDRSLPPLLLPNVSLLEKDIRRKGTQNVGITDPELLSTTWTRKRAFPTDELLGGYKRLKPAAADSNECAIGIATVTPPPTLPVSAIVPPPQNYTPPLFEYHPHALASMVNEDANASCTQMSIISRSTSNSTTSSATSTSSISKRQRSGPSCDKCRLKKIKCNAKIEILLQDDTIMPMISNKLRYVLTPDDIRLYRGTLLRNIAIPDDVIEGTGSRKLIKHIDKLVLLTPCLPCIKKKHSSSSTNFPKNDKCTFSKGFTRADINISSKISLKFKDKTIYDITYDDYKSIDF
Test: PBM E-score (8-mer binding enrichment) (E-score (-0.5 to 0.5)); higher = stronger / more preferred TF binding
Conditions: protein concentration: 200 nM; construct: GST-full length
The full ranking holds about 33,000 sequences; the median of “E-score (-0.5 to 0.5)” is about -0.017, and the highest 2% start at about 0.3. For the sample, the highest values were picked, then their nearest neighbours and some sequences at random.
READOUT_TYPE: PBM E-score
Form field (numeric): enter value without unit.

Below, 5 sequences whose answers are already recorded.
POLYMER_SEQUENCE	PBM E-score
CGGTCCGA	0.264
CTTGAATA	0.0931
ATTGAATC	0.00919
ACGAGTGA	-0.115
CTCGTTAA	0.1

Alright, here's another sequence for you.
Task item: Query (sequence): "CGTAGCAG" ; field requested: PBM E-score
Reply: -0.128

---

Target: Sut1 (UniProt P53032)
Sequence: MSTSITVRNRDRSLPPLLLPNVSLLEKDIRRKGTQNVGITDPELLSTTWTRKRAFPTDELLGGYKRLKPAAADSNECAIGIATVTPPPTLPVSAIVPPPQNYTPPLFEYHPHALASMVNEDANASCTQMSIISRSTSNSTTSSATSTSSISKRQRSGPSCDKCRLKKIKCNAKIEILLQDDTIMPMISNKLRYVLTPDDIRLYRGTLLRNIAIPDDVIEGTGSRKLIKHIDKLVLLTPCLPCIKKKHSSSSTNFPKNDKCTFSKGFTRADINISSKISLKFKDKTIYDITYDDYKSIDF
Assay: PBM E-score (8-mer binding enrichment) (E-score (-0.5 to 0.5)); higher = stronger / more preferred TF binding
Conditions: protein concentration: 200 nM; construct: GST-full length
In all, about 33,000 sequences were measured (“E-score (-0.5 to 0.5)”: median about -0.017, highest 2% from about 0.3 on). Many of the other results were omitted from the sample, so the highest values are more common in it than they were.
Measured PBM E-score determines class: lower level: < -0.03; middle level: ≥ -0.03 and < 0.2; upper level: ≥ 0.2

POLYMER_SEQUENCE	SYSTEM_UNDER_TEST	DISCRETE_LABEL
ACCTTTGG	Sut1 (UniProt P53032)	lower level
TATATATA	Sut1 (UniProt P53032)	upper level
TCGACAAA	Sut1 (UniProt P53032)	upper level
CATATATG	Sut1 (UniProt P53032)	middle level
CAATGATA	Sut1 (UniProt P53032)	middle level
CGGAGCTC	Sut1 (UniProt P53032)	upper level
CCCAAACC	Sut1 (UniProt P53032)	lower level
ACCGAGAA	Sut1 (UniProt P53032)	upper level
CATGAAGC	Sut1 (UniProt P53032)	lower level
ACTGGACT	Sut1 (UniProt P53032)	lower level

Task item: Band for "GAATGATA" ?
Reply: upper level

Task item: Which bin should I file "AAGTCGGA" under?
Reply: upper level

Task item: Lab note: which band did "AGGAGCTC" land in?
Reply: lower level

Task item: # bin lookup: classify "CCTGTTTC" by its PBM E-score
Reply: lower level

Task item: Category of "GAACCGCA" , please.
Reply: middle level

Task item: State the class of the sequence shown: "AGCATATA"
Reply: middle level

Task item: Which class holds "TGTAATAA" ?
Reply: upper level

Task item: Which bin should I file "GGGAGCTA" under?
Reply: lower level

Task item: Field: class (PBM E-score) — entry: "CGTAATAA"
Reply: middle level

Task item: Hey, which category is "AAATGATG" in, do you know?
Reply: middle level

Task item: Band for "CGGTTTAC" ?
Reply: middle level

Task item: # bin lookup: classify "AAATGATC" by its PBM E-score
Reply: middle level

Task item: Place this sequence in its band: "CATATATC"
Reply: middle level

Task item: Consider "GGGAGAAC" . To which PBM E-score class does it belong?
Reply: lower level

Task item: Dear colleague, I would appreciate it if you could identify the bin for "CTACCAGC" and reply at your convenience.
Reply: lower level
